Tested on: OVCAR-4 ovarian
Assay: NCI-60 one-dose screen, 48 h (100 = growth as untreated, 0 = no growth, -100 = all killed)
Settings: 10 µM unless noted
This is part of a sample that, as a whole, favours compounds with a hit. Of some 83,000 tested, about 20% had one in any assay.
Overview of reported growth across a group of compounds:

# Compound, growth / %
rows = [
    ("CS(=O)(=O)OCC(COS(C)(=O)=O)C(c1ccccc1)c1ccccc1", 106),
    ("COc1cccc(-c2nc3sccn3c2-c2ccnc(NCCNC(=O)c3ccccc3)n2)c1", 109),
    ("Cc1ccc2[nH]c3nc4cccnc4c(C)c3c2c1", 87.1),
    ("CN1CCN(CC(O)COc2c(Br)c(Br)c(Br)c3c2OC(C)(C)C3)CC1 (centres undefined)", 82.3),
    ("Nc1ncnc2c1c(C(F)(F)F)cn2[C@@H]1O[C@H](CO)[C@@H](O)[C@H]1O", 24.6),
    ("CN1CCN(Cn2nc(-c3cc(Cl)cc(Cl)c3Cl)n(/N=C/c3ccc(Cl)cc3)c2=S)CC1", 94.5),
    ("Nc1ncnc2c1c(-c1ccc(Oc3ccccc3)cc1)nn2C[C@H]1SSC[C@@H]1O", 47.2),
    ("COc1ccc(-c2nnc(SCC(=O)N3CCN(c4cc5c(cc4F)c(=O)c(C(=O)O)cn5C4CC4)CC3)o2)cc1OC", 103),
    ("COc1ccc2c(c1)O/C(=C/c1ccc(OCC(=O)Nc3ccc(S(N)(=O)=O)cc3)cc1)C2=O", 102),
]

====

System: MDA-MB-231 breast
Experiment: NCI-60 one-dose screen, 48 h (100 = growth as untreated, 0 = no growth, -100 = all killed)
Settings: 10 µM unless noted
About 83,000 compounds went through this panel and 20% of them were active in at least one assay; those are over-represented in the sample as a whole.

# Compound, Subject Of Test, growth, %
rows = [
    ("COc1cc(/C=C\\c2cc(/C=C\\c3ccc(O)c(OC)c3)n(C(=O)CNc3ccccc3OC)n2)ccc1O", "MDA-MB-231 breast", 87),
    ("CC(=O)c1cc2c(N)c(C(=O)Nc3cccc(Cl)c3)sc2nc1C", "MDA-MB-231 breast", 87.5),
    ("CCCCCCCCCCCCCCCC(=O)NS(=O)(=O)OC[C@H]1O[C@@H](n2cnc3c(N)ncnc32)[C@H](O)[C@@H]1O", "MDA-MB-231 breast", -25.6),
    ("CC(/C=C/C=C(\\C)[C@H](O)[C@H](C)C(=O)O[C@H]1C[C@H](C)C=C2C=C[C@@]3(C)O[C@@H](O)CC(=O)[C@]3(C)[C@H]21)=C\\C=C\\C(=O)O", "MDA-MB-231 breast", 19.8),
    ("COc1ccc(-c2nnc(NC(=O)CN3CCN(c4cc5c(cc4F)c(=O)c(C(=O)O)cn5C4CC4)CC3)s2)cc1OC", "MDA-MB-231 breast", 102),
    ("O=C(NCCNc1nccc(-c2c(-c3cccc(O)c3)nc3sccn23)n1)c1ccccc1O", "MDA-MB-231 breast", 48.4),
    ("COc1ccc(/C=C/C(=O)c2ccc(-n3cc(CN4CCN(c5cc6c(cc5F)c(=O)c(C(=O)O)cn6C5CC5)CC4)nn3)cc2)cc1OC", "MDA-MB-231 breast", 55.4),
    ("O=C(NCCNc1nccc(-c2c(-c3cccc(O)c3)nc3sccn23)n1)c1cc(N2CCOCC2)cc(C(F)(F)F)c1", "MDA-MB-231 breast", 74.1),
    ("COc1cc(NC(=O)C#Cc2ccccc2)c(OC)cc1Cl", "MDA-MB-231 breast", 26.6),
    ("NC(N)=N/N=C/c1ccc([N+](=O)[O-])cc1", "MDA-MB-231 breast", 101),
    ("CN1CCN(C(=O)/C=C/c2ccc([N+](=O)[O-])o2)CC1", "MDA-MB-231 breast", 87.8),
    ("COc1cc(/C=C2/Oc3cc4occc4c(OC)c3C2=O)ccc1OCC(=O)Nc1ccncc1", "MDA-MB-231 breast", 89.9),
    ("Cc1cccc(NCS(=O)(=O)O)c1", "MDA-MB-231 breast", 111),
    ("CC(C(=O)O)N1C(N)=NNC1c1ccccc1O (stereo not drawn)", "MDA-MB-231 breast", 76.6),
    ("Nc1nc(Cl)cc(NCc2ccc(CNc3cc(Cl)nc(N)n3)cc2)n1", "MDA-MB-231 breast", 83.1),
    ("CCn1c(SC)nnc1-c1cc2c([nH]c3ccccc32)c(-c2cccc(O)c2)n1", "MDA-MB-231 breast", 23.1),
    ("O=C1OC(=O)C2C3CC(c4ccccc43)C12 (stereo not drawn)", "MDA-MB-231 breast", 117),
    ("NC(=O)C1=C[C@H]2[C@H]3C=C[C@@]2(O)C(=O)O[C@@H]3O1", "MDA-MB-231 breast", 61.5),
    ("COc1ccc(-c2nn(-c3ccc(NC(=O)c4ccc(Cl)c(C(F)(F)F)c4)cc3)cc2-c2ccncc2)cc1Cl", "MDA-MB-231 breast", -29.6),
    ("COc1ccc(-c2c(NC(=O)Nc3ccc(Cl)c(C(F)(F)F)c3)cnn2-c2ccc(S(N)(=O)=O)cc2)cc1", "MDA-MB-231 breast", 52.7),
    ("CCOC(=O)C1CN(Cc2ccccc2)C(=O)C1=O (stereo not drawn)", "MDA-MB-231 breast", 115),
    ("O=C(O)c1ccc(-c2nn(-c3ccc(C(=O)O)cc3)cc2/C=N/Nc2c(F)c(F)cc(F)c2F)cc1", "MDA-MB-231 breast", 105),
    ("Cc1cc(-c2ccccc2)nc2ccccc12", "MDA-MB-231 breast", 94.3),
    ("CCCCCC/C=N/Nc1ccc([N+](=O)[O-])cn1", "MDA-MB-231 breast", 98.7),
    ("Nc1ncc(-c2ccc3ncnc(Nc4ccc(F)c(Cl)c4)c3c2)cn1", "MDA-MB-231 breast", 54.4),
    ("O=C(O)c1ccc(-n2cc(/C=N/Nc3ccc(Cl)cc3)c(-c3ccc(F)c(F)c3)n2)cc1", "MDA-MB-231 breast", 93),
    ("COc1ccc(C(=O)NC(=O)Nc2ccc3c(c2)NC(=O)/C3=C\\c2[nH]c(C)c(C(=O)O)c2C)cc1", "MDA-MB-231 breast", 86.8),
    ("C[C@]12CC[C@@H]3c4ccc(O)c(N)c4CC[C@H]3[C@@H]1CC[C@@H]2O", "MDA-MB-231 breast", 115),
    ("CO[C@H]1/C=C/C=C/C=C/C[C@H](OC(=O)[C@@H](C)NC(=O)C2CCCCC2)[C@H](C)[C@@H](O)/C(C)=C\\CCC2=CC(=O)C=C(NC(=O)C1)C2=O", "MDA-MB-231 breast", 5.38),
    ("CCCCn1c(-c2cccc(OC)c2)nc2cc(OC)c(OC)cc2c1=O", "MDA-MB-231 breast", 89.2),
    ("CC(=O)Nc1ccc([I+]c2ccc([N+](=O)[O-])cc2)cc1", "MDA-MB-231 breast", 113),
    ("COc1ccc(-c2ccc(NC(=O)Nc3cccc(C(F)(F)F)c3)c(C)n2)cc1", "MDA-MB-231 breast", 68.6),
    ("O=C(c1cc(-c2ccc(Cl)cc2)nc2ccccc12)N1N=C(c2ccccc2)CC1c1cc(-c2ccccc2)nn1-c1ccccc1 (stereo not drawn)", "MDA-MB-231 breast", 93.3),
    ("Cc1c(Cl)ccc2c(C(=O)Cl)cc(-c3ccccc3)nc12", "MDA-MB-231 breast", 97),
    ("COc1ccc(-c2nn(-c3ccc(NC(=O)c4cc(C(F)(F)F)cc(C(F)(F)F)c4)cc3)cc2-c2ccncc2)cc1Cl", "MDA-MB-231 breast", 49.3),
    ("COc1ccccc1S(=O)(=O)Nc1ccc2c3c(cc(-c4cnn(C)c4)nc13)C(=O)N2C", "MDA-MB-231 breast", 40.7),
    ("Cc1ccc[n+](CC(=O)c2cccc3ccccc23)c1", "MDA-MB-231 breast", 130),
    ("CC1(C)N=C(N)N=C(N)N1c1ccc(F)c(C(F)(F)F)c1", "MDA-MB-231 breast", 73.5),
]
